system: HepG2, HCT-8, Huh-7, Huh-7.5, TZM, PC3 and 293T cells; type: cell-based, human; settings: cervical cancer cells
Measured metric: CC50

>  <Compound>
N=C1Sc2ccccc2C2=NCCCN12 [PD, PD 404,182]

>  <Tested on>
HepG2, HCT-8, Huh-7, Huh-7.5, TZM, PC3 and 293T cells

>  <Reported>
> 300 µM

$$$$

====

tested on: HepG2, HCT-8, Huh-7, Huh-7.5, TZM, PC3 and 293T cells; type: cell-based, human; conditions: seven different human cell lines, including TZM-bl (HeLa)

>  <Molecule>
N=C1Sc2ccccc2C2=NCCCN12 [PD, PD 404,182]

>  <Tested on>
HepG2, HCT-8, Huh-7, Huh-7.5, TZM, PC3 and 293T cells

>  <CC50>
> 300 µM

$$$$

====

tested on: primary CD4+ T-lymphocytes, macrophages and dendritic cells; assay: Primary cells toxicity testing (LDH release); details: up to 14 days

>  <Molecule>
N=C1Sc2ccccc2C2=NCCCN12 [PD, PD 404,182]

>  <CC50>
> 300 µM

$$$$

====

test system: commensal Lactobacillus species; assay: Lactobacillus toxicity testing, all strains together; format: cell-based; conditions: vaginal commensal bacteria Lactobacilli

>  <Chemical string>
N=C1Sc2ccccc2C2=NCCCN12

>  <CC50>
> 300 µM

$$$$
